- Target System: endogenous CGRP receptor (Homo sapiens, UniProt O60894+Q16602)
- Sequence (Q16602 23-461): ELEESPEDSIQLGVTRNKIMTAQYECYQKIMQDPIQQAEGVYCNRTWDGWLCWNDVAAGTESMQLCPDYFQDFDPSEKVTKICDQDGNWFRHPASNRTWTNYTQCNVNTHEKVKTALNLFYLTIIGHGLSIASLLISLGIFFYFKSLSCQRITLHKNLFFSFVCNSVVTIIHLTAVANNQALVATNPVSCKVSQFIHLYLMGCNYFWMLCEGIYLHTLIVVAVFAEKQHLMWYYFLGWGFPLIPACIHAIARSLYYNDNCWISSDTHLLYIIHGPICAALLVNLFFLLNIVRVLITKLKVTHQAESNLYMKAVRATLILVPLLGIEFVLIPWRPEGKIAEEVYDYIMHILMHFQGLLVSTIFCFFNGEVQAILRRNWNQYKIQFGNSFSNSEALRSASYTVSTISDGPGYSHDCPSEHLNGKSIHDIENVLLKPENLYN
- Sequence (O60894 27-148): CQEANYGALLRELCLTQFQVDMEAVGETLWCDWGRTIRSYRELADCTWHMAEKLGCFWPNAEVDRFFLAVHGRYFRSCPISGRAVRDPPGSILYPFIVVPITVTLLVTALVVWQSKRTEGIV
- Protocol Details: CGRP functional antagonism using SK-N-MC-BLA (4C10), β-lactamase transcriptional reporter assay
- Condition Description: SK-N-MC (4C10) cells, inhibition of β-lactamase expression in the presence of 200 pM CGRP
pIC50: −log10 of the molar value.
Measured pIC50, listed per entry for reference.

{"Compound": "Cc1c(F)cccc1C1SC(CC(=O)N2CCC(N3Cc4ccccc4NC3=O)CC2)C(=O)N1CCC(C)C (stereo not shown)", "pIC50": "> 6.00"}
{"Compound": "CC(C)(C)CCN1C(=O)[C@H](CC(=O)N2CCC(N3Cc4ccccc4NC3=O)CC2)S[C@H]1c1cccc(F)c1N1CCC(O)C1 (stereo partly shown)", "pIC50": "> 6.00"}
{"Compound": "O=C(CC1SC(c2ccccc2)N(CCc2ccccc2)C1=O)N1CCC(N2Cc3ccccc3NC2=O)CC1 (stereo not shown)", "pIC50": "> 6.00"}
{"Compound": "CC(C)CCN1C(=O)C(CC(=O)N2CCC(N3CCc4ccccc4NC3=O)CC2)SC1c1cccc(C(F)(F)F)c1F (stereo not shown)", "pIC50": "> 6.00"}
{"Compound": "CC(C)CCN1C(=O)C(CC(=O)N2CCC(N3Cc4ccccc4NC3=O)CC2)SC1c1ccc2c(c1)OCCN2C (stereo not shown)", "pIC50": "5.30 to 6.00"}
{"Compound": "CC(C)(C)CCN1C(=O)C(CC(=O)N2CCC(n3c(=O)[nH]c4ncccc43)CC2)SC1c1ccccc1N1CCC(O)CC1 (stereo not shown)", "pIC50": "5.30 to 6.00"}
{"Compound": "CN1CCN(c2ccccc2C2SC(CC(=O)N3CCC(n4cc(-c5ccccc5)[nH]c4=O)CC3)C(=O)N2CCC(C)(C)C)CC1 (stereo not shown)", "pIC50": "> 6.00"}
